The reported measurements were obtained from ChEMBL document CHEMBL3739268.

Assay: Plasma clearance in mouse at 5 mg/kg, iv
Type: ADME, organism-based

- compound: "CC1(C)CCC(Cc2cc(O)c(-c3ccccc3)c(=O)[nH]2)CC1"
  clearance, mL/min/kg: 13.6

###

Target: Cytochrome P450 2C9 (Homo sapiens)
Sequence (P11712 whole entry): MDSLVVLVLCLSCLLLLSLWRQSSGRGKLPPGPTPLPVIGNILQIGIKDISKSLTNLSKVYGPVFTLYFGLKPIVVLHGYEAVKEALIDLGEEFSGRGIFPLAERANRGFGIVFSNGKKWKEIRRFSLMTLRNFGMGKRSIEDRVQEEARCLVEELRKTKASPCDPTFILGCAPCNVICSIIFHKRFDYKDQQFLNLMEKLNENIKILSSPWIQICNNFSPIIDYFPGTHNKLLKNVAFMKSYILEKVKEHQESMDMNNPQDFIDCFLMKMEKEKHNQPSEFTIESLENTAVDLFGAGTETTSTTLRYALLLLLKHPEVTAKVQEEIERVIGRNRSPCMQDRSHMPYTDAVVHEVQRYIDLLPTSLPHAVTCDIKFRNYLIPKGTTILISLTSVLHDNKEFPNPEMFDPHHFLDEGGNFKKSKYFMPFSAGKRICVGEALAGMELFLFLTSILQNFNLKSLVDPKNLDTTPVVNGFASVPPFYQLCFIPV
pIC50: −log10 of the molar value.
observation-type: pIC50

- compound: "CC(C)Cc1cc(O)c(-c2ccccc2)c(=O)[nH]1"
  assay-result: "< 4.70"

###

Molecular target: Cytochrome P450 3A4 (Homo sapiens, UniProt P08684)
Sequence (P08684 whole entry): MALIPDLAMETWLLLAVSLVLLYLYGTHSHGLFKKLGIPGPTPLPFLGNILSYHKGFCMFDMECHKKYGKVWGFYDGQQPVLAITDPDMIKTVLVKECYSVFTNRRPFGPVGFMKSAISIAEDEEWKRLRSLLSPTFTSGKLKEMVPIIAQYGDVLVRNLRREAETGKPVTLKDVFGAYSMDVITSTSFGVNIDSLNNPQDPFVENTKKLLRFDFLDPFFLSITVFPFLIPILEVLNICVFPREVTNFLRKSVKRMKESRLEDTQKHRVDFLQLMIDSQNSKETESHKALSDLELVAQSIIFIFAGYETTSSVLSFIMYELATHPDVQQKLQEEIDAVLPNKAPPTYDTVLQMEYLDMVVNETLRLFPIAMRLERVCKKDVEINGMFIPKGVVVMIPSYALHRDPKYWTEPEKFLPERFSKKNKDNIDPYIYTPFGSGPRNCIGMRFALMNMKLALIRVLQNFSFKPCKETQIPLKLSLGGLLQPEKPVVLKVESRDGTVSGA
pIC50: −log10 of the molar value.

- compound: "CC(C)Cc1cc(O)c(-c2ccccc2)c(=O)[nH]1"
  pIC50: "< 4.70"

###

Assay: Terminal half life in mouse at 5 mg/kg, iv
Type: ADME, organism-based
Conditions: in vivo, read-out: beta t1/2 (converted)
The entries below come with measured half-life values attached.

- compound: "CC(C)Cc1cc(O)c(-c2ccccc2)c(=O)[nH]1"
  half-life: "1.21 h"
- compound: "CC1(C)CCC(Cc2cc(O)c(-c3ccccc3)c(=O)[nH]2)CC1"
  half-life: "1.13 h"

###

Assay: Solubility of the compound at pH 6.8 after 24 hrs by shake flask method
Assay type: physicochemical
Settings: buffer
observation-type: log10 solubility thermodynamic at 24 h (log10 of the value in µM)

- compound: "O=c1[nH]c(CC2CCC(F)(F)CC2)cc(O)c1-c1ccccc1"
  log10 solubility thermodynamic at 24 h: 2.02
- compound: "O=c1[nH]c(CC2CCC2)cc(O)c1-c1ccccc1"
  log10 solubility thermodynamic at 24 h: 2.45
- compound: "CC(C)CCc1cc(O)c(-c2ccccc2)c(=O)[nH]1"
  log10 solubility thermodynamic at 24 h: 2.11
- compound: "O=c1[nH]c(CC2CCCC2)cc(O)c1-c1ccccc1"
  log10 solubility thermodynamic at 24 h: 2.16
- compound: "O=c1[nH]c(CC2CCCCC2)cc(O)c1-c1ccccc1"
  log10 solubility thermodynamic at 24 h: 1.38

###

Assay: AUC in mouse at 25 mg/kg, po
Assay type: ADME, organism-based
Details: in vivo

- compound: "CC1(C)CCC(Cc2cc(O)c(-c3ccccc3)c(=O)[nH]2)CC1"
  unit-string: "µM·h"
  AUC: 65.8

###

Experiment: Tmax in mouse at 50 mg/kg, po
Type: ADME, organism-based
Details: in vivo

- compound: "CC(C)Cc1cc(O)c(-c2ccccc2)c(=O)[nH]1"
  Tmax, min: 30

###

Assay: Tmax in mouse at 25 mg/kg, po
Format: ADME, organism-based
Conditions: in vivo

- compound: "CC1(C)CCC(Cc2cc(O)c(-c3ccccc3)c(=O)[nH]2)CC1"
  Tmax [h]: 6

###

Experiment: Volume of distribution at steady state in mouse at 5 mg/kg, iv
Assay type: ADME, organism-based
Conditions: in vivo, read-out: Vdss

- compound: "CC1(C)CCC(Cc2cc(O)c(-c3ccccc3)c(=O)[nH]2)CC1"
  Vd, L/kg: 0.54
- compound: "CC(C)Cc1cc(O)c(-c2ccccc2)c(=O)[nH]1"
  Vd, L/kg: 0.46

###

Assay: Intrinsic clearance in mouse liver microsomes
Assay type: ADME
Conditions: read-out: CLH
observation-type: microsomal CLint (µL/min/mg)

- compound: "CC1(C)CCC(Cc2cc(O)c(-c3ccccc3)c(=O)[nH]2)CC1"
  assay-result: 45
- compound: "CC(C)Cc1cc(O)c(-c2ccccc2)c(=O)[nH]1"
  assay-result: 22
